- Test system: human lung cancer (A549) cell line
- Assay details: Cytotoxic activity, MTT assay, lung (A549)
- Assay conditions: Conc.: 5a 53.81, 5d 50.55, 5e 49.15, 5f 47.26, 7a 50.86, 7f 44.96, DOX 46.00
Measurement type: Viability %, A549, 3rd concentration
// unit must come after the numeric part

[[record]]
smiles_text = "Cc1c(C=Nc2[nH]nc(Nc3ccccc3)c2C(=O)Nc2ccccc2)c(=O)n(-c2ccccc2)n1C"
test_system = "human lung cancer (A549) cell line"
measurement = "48.51%"

[[record]]
smiles_text = "O=C(Nc1ccccc1)c1c(Nc2ccccc2)n[nH]c1N=Cc1ccc(N2CCCCC2)cc1"
test_system = "human lung cancer (A549) cell line"
measurement = "60.91%"

[[record]]
smiles_text = "COc1ccc(Nc2n[nH]c(/N=C/c3ccc(N4CCCCC4)cc3)c2C(=O)Nc2ccccc2)cc1"
test_system = "human lung cancer (A549) cell line"
measurement = "48.01%"

[[record]]
smiles_text = "COc1ccc(Nc2n[nH]c(N=Cc3c(C)n(C)n(-c4ccccc4)c3=O)c2C(=O)Nc2ccc(Cl)cc2)cc1"
test_system = "human lung cancer (A549) cell line"
measurement = "59.66%"

[[record]]
smiles_text = "COc1ccc(Nc2n[nH]c(/N=C/c3ccc(N4CCCCC4)cc3)c2C(=O)Nc2ccc(C)cc2)cc1"
test_system = "human lung cancer (A549) cell line"
measurement = "48.51%"


Moving on to another compound below.
Fill blank: measured Viability %, A549, 3rd concentration of the compound `COc1ccc(Nc2n[nH]c(N=Cc3ccc(N4CCCCC4)cc3)c2C(=O)Nc2ccc(Cl)cc2)cc1` is ____.
60.91%
